Data provenance is patent US20230151014A1.

molecular target: recombinant human Myt1 (Homo sapiens); construct: full length PKMYT1 recombinant human protein expressed in insect cells; experiment: Myt1 enzymatic assay (ADP-Glo kinase assay, IC50 and % max inhibition); details: recombinant human Myt1 18 nM, ATP 10 μM
parameter_measured: log10(IC50) (log10 of the value in nM)
// units: nM (pre-log); metric: IC50; scale: log10

Enquiry: Item "CCCCc1cnc2c(n1)c(C(N)=O)c(N)n2-c1c(Cl)ccc(O)c1C" has what recorded log10(IC50)?
Return: 1.08

Enquiry: Try the molecule "Cc1ccc(O)c(C)c1-n1c(N)c(C(N)=O)c2nc(C#CC(=O)Nc3ccc(F)cc3)cnc21"
Return: 1.51

Enquiry: Try the molecule "Cc1c(O)ccc(Br)c1-n1c(N)c(C(N)=O)c2cc(Cl)cnc21"
Return: 1.11

Enquiry: Try the molecule "Cc1ccc(O)c(C)c1-n1c(N)c(C(N)=O)c2nc(N3CCN(C)CC3)cnc21"
Return: 1.20

Enquiry: Try the molecule "CC(=O)c1c(N)n(-c2c(C)ccc(O)c2C)c2ncc(-c3cnccn3)nc12"
Return: 1.08

Enquiry: Try the molecule "CC(=O)Nc1cccc(-c2cnc3c(C(N)=O)c(N)n(-c4cc(O)ccc4C)c3n2)c1"
Return: 3.09

====

molecular target: recombinant human Myt1 (Homo sapiens); construct: full length PKMYT1 recombinant human protein expressed in insect cells; assay: Myt1 enzymatic assay (ADP-Glo kinase assay, IC50 and % max inhibition); conditions: recombinant human Myt1 18 nM, ATP 10 μM
parameter_measured: pIC50
Please report pIC50 as the negative decimal logarithm of the molar concentration, giving only the number.

Consider the worked cases shown below.
Enquiry: Item "Cc1ccc(O)cc1-n1c(N)c(C(N)=O)c2nc(-c3ccc(N4CCOCC4)nc3)ccc21" has what recorded pIC50?
Return: 6.22

Enquiry: Try the molecule "Cc1ccc(O)c(C)c1-n1c(N)c(C(N)=O)c2ncc(C#Cc3ccccn3)nc21"
Return: 7.30

Let us move to another entry and its pIC50.
Enquiry: Item "Cc1ccc(O)cc1-n1c(N)c(C(N)=O)c2nc(-c3ccn(C)n3)ccc21" has what recorded pIC50?
Return: 6.01

====

# key: entry, value: log10 IC50
molecular target: recombinant human Myt1 (Homo sapiens); construct: full length PKMYT1 recombinant human protein expressed in insect cells; assay: Myt1 enzymatic assay (ADP-Glo kinase assay, IC50 and % max inhibition); conditions: recombinant human Myt1 18 nM, ATP 10 μM
// units: nM (pre-log); metric: IC50; scale: log10

Consider the worked cases shown below.
Enquiry: Param readout= log10 IC50; system= recombinant human Myt1 (Homo sapiens); entry= "Cc1ccc(O)cc1-n1c(N)c(C(N)=O)c2nc(CCCN3CCOCC3)ccc21" ; returns value.
Return: 3.29

Enquiry: Try the compound "Cc1ccc(O)cc1-n1c(N)c(C(N)=O)c2ncc(OCc3cccnc3)nc21"
Return: 3.55

Enquiry: Try the compound "Cc1ccc(O)c(C)c1-n1c(N)c(C(N)=O)c2ncc(C#CCC3(O)CCOCC3)nc21"
Return: 1.28

Enquiry: Try the compound "Cc1ccc(O)c(C)c1-n1c(N)c(C(N)=O)c2nc(C3CC3)c(C3CC3)nc21"
Return: 1.70

Enquiry: Try the compound "Cc1ccc(O)c(C)c1-n1c(N)c(C(N)=O)c2nc(N3CCC(N4CCOCC4)CC3)cnc21"
Return: 1.15

Enquiry: Try the compound "Cc1ccc(O)c(C)c1-n1c(N)c(C(N)=O)c2ncc(C#C[C@@H](C)O)nc21"
Return: 1.38

Enquiry: Try the compound "Cc1ccc(O)cc1-n1c(N)c(C(N)=O)c2nc(OCc3cccnc3)cnc21"
Return: 2.38

Enquiry: Try the compound "Cc1ccc(O)cc1-n1c(N)c(C(N)=O)c2ncc(C#Cc3cccnc3)nc21"
Return: 2.74

---
Enquiry: Param readout= log10 IC50; system= recombinant human Myt1 (Homo sapiens); entry= Cc1ccc(O)c(C)c1-n1c(N)c(C(N)=O)c2nc(C#CC3CCNC3)cnc21 (stereo not shown) ; returns value.
Return: 2.40

Enquiry: Try the compound "Cc1ccc(O)cc1-n1c(N)c(C(N)=O)c2ncc(-c3ccccc3)nc21"
Return: 3.13

Enquiry: Try the compound "Cc1ccc(O)cc1-n1c(N)c(C(N)=O)c2ncc(CCc3cccnc3)nc21"
Return: 2.78

Enquiry: Try the compound "Cc1ccc(O)cc1-n1c(N)c(C(N)=O)c2ncc(OCc3ccccc3)nc21"
Return: 3.44

Enquiry: Try the compound "Cc1ccc(O)cc1-n1c(N)c(C(N)=O)c2nc(-c3ccc(CC(=O)O)cc3)ccc21"
Return: 2.45

Enquiry: Try the compound Cc1ccc(O)c(C)c1-n1c(N)c(C(N)=O)c2ncc(C#CC3CCCCO3)nc21 (stereo not shown)
Return: 1.11

====

Target: recombinant human Myt1 (Homo sapiens)
Construct: full length PKMYT1 recombinant human protein expressed in insect cells
Sequence (Q99640 1-499): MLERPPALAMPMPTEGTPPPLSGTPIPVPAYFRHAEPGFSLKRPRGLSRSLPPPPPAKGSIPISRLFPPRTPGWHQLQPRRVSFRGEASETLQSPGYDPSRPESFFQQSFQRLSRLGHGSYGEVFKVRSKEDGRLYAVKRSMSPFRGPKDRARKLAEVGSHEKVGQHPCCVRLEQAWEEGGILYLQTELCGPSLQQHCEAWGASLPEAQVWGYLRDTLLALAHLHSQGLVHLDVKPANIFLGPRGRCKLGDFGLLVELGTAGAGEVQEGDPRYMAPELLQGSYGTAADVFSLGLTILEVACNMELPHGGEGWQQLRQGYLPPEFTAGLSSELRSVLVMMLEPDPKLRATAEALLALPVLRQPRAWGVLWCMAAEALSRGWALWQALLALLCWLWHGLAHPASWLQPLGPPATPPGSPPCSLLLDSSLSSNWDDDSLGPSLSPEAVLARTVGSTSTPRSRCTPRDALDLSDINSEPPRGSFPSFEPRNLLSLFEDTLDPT
Assay: Myt1 enzymatic assay (ADP-Glo kinase assay, IC50 and % max inhibition)
Settings: recombinant human Myt1 18 nM, ATP 10 μM
parameter_measured: IC50

Consider the worked cases shown below.
Enquiry: Item "Cc1ccc(O)c(C)c1-n1c(N)c(C(N)=O)c2c(C)c(C)cnc21" has what recorded IC50?
Return: 16 nM

Enquiry: Try the compound "Cc1ccc(O)cc1-n1c(N)c(C(N)=O)c2ncc(CCc3ccccn3)nc21"
Return: 1720 nM

Enquiry: Try the compound "Cc1ccc(O)c(C)c1-n1c(N)c(C(N)=O)c2nc(-c3nc4ccccc4o3)cnc21"
Return: 20 nM

Enquiry: Try the compound "Cc1ccc(O)c(C)c1-n1c(N)c(C(N)=O)c2ncc(C#CC3(O)CCOCC3)nc21"
Return: < 10 nM

---
Enquiry: Item "Cc1ccc(O)c(C)c1-n1cc(C(N)=O)c2cc(C3CC3)cnc21" has what recorded IC50?
Return: < 10 nM

Enquiry: Try the compound "Cc1ccc(O)c(C)c1-n1c(N)c(C(N)=O)c2nc(N3CCC(C)(O)CC3)cnc21"
Return: 10 nM

Enquiry: Try the compound "Cc1ccc(O)c(C)c1-n1c(N)c(C(N)=O)c2nc(-c3ccns3)cnc21"
Return: < 10 nM

Enquiry: Try the compound "C=Cc1nc2c(C(N)=O)c(N)n(-c3c(C)ccc(O)c3C)c2nc1C(F)(F)F"
Return: 13 nM

====

# key: entry, value: IC50
molecular target: recombinant human Myt1 (Homo sapiens); construct: full length PKMYT1 recombinant human protein expressed in insect cells; assay: Myt1 enzymatic assay (ADP-Glo kinase assay, IC50 and % max inhibition); details: recombinant human Myt1 18 nM, ATP 10 μM
Just the number please, in nM, no unit attached.

Consider the worked cases shown below.
Enquiry: Item Cc1ccc(O)c(C)c1-n1c(N)c(C(N)=O)c2nc(C(=O)NCc3ccccc3)cnc21 [Compound 245] has what recorded IC50?
Return: 11

Enquiry: Try the molecule Cc1ccc(O)c(C)c1-n1c(N)c(C(N)=O)c2ncc(C#CC3(C)CCCO3)nc21 (centres unmarked) [Compound 235]
Return: 13

Enquiry: Try the molecule Cc1ccc(O)cc1-n1c(N)c(C(N)=O)c2nc(-c3cc[nH]n3)ccc21 [Compound 11]
Return: 252

---
Enquiry: Item Cc1ccc(O)cc1-n1c(N)c(C(N)=O)c2ncc(-c3cccc(C(N)=O)c3)nc21 [Compound 156] has what recorded IC50?
Return: 465

Enquiry: Try the molecule Cc1ccc(O)c(C)c1-n1c(N)c(C(N)=O)c2nc(CCC3CCCN3)cnc21 (centres unmarked) [Compound 2]
Return: 231

Enquiry: Try the molecule Cc1ccc(O)c(C)c1-n1cc(C(N)=O)c2nc(C)c(C)nc21 [Compound 209]
Return: 28

====

# key: entry, value: pIC50
Target: recombinant human Myt1 (Homo sapiens)
Construct: full length PKMYT1 recombinant human protein expressed in insect cells
Sequence (Q99640 1-499): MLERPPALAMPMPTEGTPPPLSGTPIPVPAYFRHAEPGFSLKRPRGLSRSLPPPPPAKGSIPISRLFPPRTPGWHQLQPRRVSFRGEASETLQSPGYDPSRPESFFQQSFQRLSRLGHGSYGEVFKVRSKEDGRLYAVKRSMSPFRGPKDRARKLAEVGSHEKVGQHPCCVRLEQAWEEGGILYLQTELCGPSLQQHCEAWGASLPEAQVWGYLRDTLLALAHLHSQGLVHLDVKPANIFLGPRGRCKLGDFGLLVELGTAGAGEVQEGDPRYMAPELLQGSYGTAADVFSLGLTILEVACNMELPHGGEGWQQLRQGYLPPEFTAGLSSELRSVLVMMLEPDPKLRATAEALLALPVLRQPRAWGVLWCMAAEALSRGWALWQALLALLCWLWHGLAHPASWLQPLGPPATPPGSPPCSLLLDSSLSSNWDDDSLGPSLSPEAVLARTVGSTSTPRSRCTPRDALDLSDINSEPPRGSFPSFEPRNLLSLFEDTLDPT
Assay: Myt1 enzymatic assay (ADP-Glo kinase assay, IC50 and % max inhibition)
Conditions: recombinant human Myt1 18 nM, ATP 10 μM
Please report pIC50 as the negative decimal logarithm of the molar concentration, giving only the number.

Consider the worked cases shown below.
Enquiry: Item Cc1ccc(O)c(C)c1-n1c(N)c(C(N)=O)c2nc(CCC3CCNC3)cnc21 (centres unmarked) [Compound 280] has what recorded pIC50?
Return: 7.10

Enquiry: Try the compound Cc1ccc(O)c(C)c1-n1c(N)c(C(N)=O)c2nc(N3CC4(COC4)C3)cnc21 [Compound 253]
Return: 7.62

Enquiry: Try the compound Cc1ccc(O)c(C)c1-n1c(N)c(C(N)=O)c2nc(N3CCOC(C)C3)cnc21 (centres unmarked) [Compound 59]
Return: 7.92

Enquiry: Try the compound COCCOCC#Cc1cnc2c(C(N)=O)c(N)n(-c3c(C)ccc(O)c3C)c2n1 [Compound 240]
Return: 6.72

Enquiry: Try the compound Cc1ccc(O)cc1-n1c(N)c(C(N)=O)c2nc(OCc3ccccc3)cnc21 [Compound 281]
Return: 6.11

---
Enquiry: Item Cc1ccc(O)cc1-n1c(N)c(C(N)=O)c2nc(-c3cccc(C(=O)O)c3)ccc21 [Compound 9] has what recorded pIC50?
Return: 6.44
